Data provenance is paper PMC2756588.

We begin with a simple list: items and their reported SPOT intensity.
Target: T1, Boi2, P39969
T1 sequence (P39969 32-116, looked up): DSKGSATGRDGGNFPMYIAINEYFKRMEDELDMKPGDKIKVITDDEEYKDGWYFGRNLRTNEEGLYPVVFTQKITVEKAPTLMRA
Experiment: SPOT array
Details: median of control spots 1161
Provide a numeric answer; units are not to be included.

Past entries and their recorded results:
BINDER: DAPASKPSVPPRNYF
SPOT intensity: 0
--
BINDER: RRGPAPPPPPRASRP
SPOT intensity: 0
--
BINDER: FYHRPAPKPPVTKKV
SPOT intensity: 0

Find the recorded SPOT intensity belonging to `AHFQPQRTAPKPPIS` and report it.
0

Find the recorded SPOT intensity belonging to `PIVPSSPAPPLPLSG` and report it.
0

Find the recorded SPOT intensity belonging to `VKPRQLFPIPLNKVD` and report it.
0

Find the recorded SPOT intensity belonging to `FSRRQSMDIPSKNRN` and report it.
1

Find the recorded SPOT intensity belonging to `RSRRSSFAYPQQVAI` and report it.
0

Find the recorded SPOT intensity belonging to `VDFTLPPPPPPPGLD` and report it.
0

Find the recorded SPOT intensity belonging to `RSKRLFPVRPMATAH` and report it.
0

Find the recorded SPOT intensity belonging to `HHKRRPTTIDVPGLT` and report it.
1

Find the recorded SPOT intensity belonging to `MPAPPPPPPPPPGAF` and report it.
0

Find the recorded SPOT intensity belonging to `RNNRPVPPPPPMRTT` and report it.
1

Find the recorded SPOT intensity belonging to `DLPLPDLPPEPPTEL` and report it.
1
